From: the supplement of paper PMC8960247

system: 621-102 (TSC2-deficient); assay: relative viability vs DMSO (fraction); higher = less cytotoxic; conditions: 8 nM; serum: 0.1% FBS; 72 h;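 also: renal angiomyolipoma cell lines screened in 384-well plates, viability normalized per plate to DMSO-treated cells, each plate carrying 50 nM rapamycin and 1 µM staurosporine controls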
Where a name gives a salt, the structure may show the parent alone.
Criterion: relative viability strictly under 0.6. Met: YES. Not met: NO.

{"compound": "Cc1[nH]c2ccccc2c1CCNCc1ccc(/C=C/C(=O)NO)cc1 [Panobinostat (LBH589)]", "target of assay": "621-102 (TSC2-deficient)", "answer label": "YES"}
{"compound": "O=C(/C=C/c1ccc(CN(CCO)CCc2c[nH]c3ccccc23)cc1)NO [LAQ824]", "target of assay": "621-102 (TSC2-deficient)", "answer label": "NO"}
{"compound": "COc1cccc2c1C(=O)c1c(O)c3c(c(O)c1C2=O)C[C@@](O)(C(=O)CO)C[C@@H]3O[C@H]1C[C@H](N)[C@H](O)[C@H](C)O1 [Doxorubicin (adriamycin)]", "target of assay": "621-102 (TSC2-deficient)", "answer label": "YES"}
{"compound": "CC(C)c1cc(C(C)C)c(CC(=O)NS(=O)(=O)Oc2c(C(C)C)cccc2C(C)C)c(C(C)C)c1 [Avasimibe]", "target of assay": "621-102 (TSC2-deficient)", "answer label": "NO"}
{"compound": "CC[C@@]1(O)C(=O)OCc2c1cc1n(c2=O)Cc2cc3ccccc3nc2-1 [Camptothecin]", "target of assay": "621-102 (TSC2-deficient)", "answer label": "YES"}
{"compound": "c1cncc(CN2CCC(n3ncc4c(N5CCOCC5)nc(-c5ccc6[nH]ccc6c5)nc43)CC2)c1 [WAY-600]", "target of assay": "621-102 (TSC2-deficient)", "answer label": "NO"}
{"compound": "CC(C)(C)c1cnc(CSc2cnc(NC(=O)C3CCNCC3)s2)o1", "target of assay": "621-102 (TSC2-deficient)", "answer label": "NO"}
{"compound": "Nc1ccn([C@@H]2O[C@H](CO)[C@@H](O)C2(F)F)c(=O)n1 [Gemcitabine Hydrochloride]", "target of assay": "621-102 (TSC2-deficient)", "answer label": "YES"}
{"compound": "CC(C)C[C@@H](C=O)NC(=O)[C@H](CC(C)C)NC(=O)[C@H](CC(C)C)NC(=O)OCc1ccccc1 [MG132]", "target of assay": "621-102 (TSC2-deficient)", "answer label": "YES"}
